- System: Ent. cloacae MA2646
Under this convention, satisfied denotes MIC strictly below 0.1 µg/mL and not satisfied denotes MIC at or above 0.1 µg/mL.

molecule | measured_on | category_label
CCOc1c(N2CC[C@@H]([C@H](C)NC)C2)c(F)cc2c(=O)c(C(=O)O)cn(C3CC3)c12 | Ent. cloacae MA2646 | not satisfied
C[C@H](N)[C@@H]1CCN(c2nc3c(cc2F)c(=O)c(C(=O)O)cn3C2CC2)C1 (relative stereo) [reference compound] | Ent. cloacae MA2646 | satisfied
COc1c(N2CC[C@@H]([C@H](C)N)C2)c(F)c(N)c2c(=O)c(C(=O)O)cn(C3CC3)c12 | Ent. cloacae MA2646 | satisfied
CCN[C@H](C)[C@@H]1CCN(c2c(F)cc3c(=O)c(C(=O)O)cn(C4CC4)c3c2OC)C1 | Ent. cloacae MA2646 | not satisfied
CCN[C@@H](C)[C@@H]1CCN(c2c(F)c(N)c3c(=O)c(C(=O)O)cn(C4CC4)c3c2F)C1 | Ent. cloacae MA2646 | satisfied
CN[C@@H](C)[C@H]1CCN(c2c(F)c(N)c3c(=O)c(C(=O)O)cn(C4CC4)c3c2F)C1 | Ent. cloacae MA2646 | not satisfied
CCN[C@@H](C)[C@@H]1CCN(c2nc3c(cc2F)c(=O)c(C(=O)O)cn3C2CC2)C1 | Ent. cloacae MA2646 | not satisfied
CCOc1c(N2CC[C@@H]([C@H](C)N)C2)c(F)cc2c(=O)c(C(=O)O)cn(C3CC3)c12 | Ent. cloacae MA2646 | not satisfied
C[C@@H](N)[C@H]1CCN(c2nc3c(cc2F)c(=O)c(C(=O)O)cn3C2CC2)C1 | Ent. cloacae MA2646 | satisfied

The origin of these recorded values is patent US5563155A.
